system: Plasmodium falciparum; test: Antiprotozoal activity against erythrocytic stage of Plasmodium falciparum K1 after 48 hrs by [3H]- hypoxanthine incorporation assay; assay type: functional, organism-based
Field: IC50. Provide a value for each of the compounds that follow.
Reply with the number, then its unit.

# batch size: 4; output IC50 per entry
1. CC(C)c1ccc(-c2c[nH]cc2C(c2ccc(Cl)cc2Cl)n2ccnc2)cc1 (centres undefined)
2. O=[N+]([O-])c1ccc(-n2ccc(C(c3ccccc3)n3ccnc3)c2)cc1 (centres undefined)
3. CCc1ccc(-c2c[nH]cc2C(c2ccc(Cl)cc2Cl)n2ccnc2)cc1 (centres undefined)
4. Clc1ccc(C(c2c[nH]cc2-c2ccc(Cl)cc2-n2cccc2)n2ccnc2)c(Cl)c1 (centres undefined)

1: 280 nM; 2: 4990 nM; 3: 300 nM; 4: 4530 nM

# batch size: 5; output IC50 per entry
1. Cc1ccc(-c2c[nH]cc2C(c2ccc(Cl)cc2Cl)n2ccnc2)cc1 (centres undefined)
2. Cn1cc(C(c2ccc(Cl)cc2)n2ccnc2)cc1-c1ccc(Cl)cc1 (centres undefined)
3. O=[N+]([O-])c1ccc(C(c2ccn(-c3ccc([N+](=O)[O-])cc3)c2)n2ccnc2)cc1 (centres undefined)
4. C[C@@H]1CC[C@H]2[C@@H](C)C(=O)O[C@@H]3O[C@@]4(C)CC[C@@H]1[C@]32OO4
5. O=[N+]([O-])c1ccc(-n2ccc(C(c3ccc(Cl)cc3)n3ccnc3)c2)cc1 (centres undefined)

290 nM
1410 nM
2330 nM
7 nM
4570 nM

---

tested on: Trypanosoma cruzi; assay: Antiprotozoal activity against Trypanosoma cruzi Tulahuen C2C4 amastigotes infected in rat L6 cells after 96 hrs by inverted microscopic analysis; assay type: functional, organism-based; settings: Tulahuen C2C4, L6, 96 h
Field: pIC50. Provide a value for each of the compounds that follow.
Numbers only, as −log10 of the molar value.

Some solved cases for reference:
[[record]]
compound = "CS(=O)(=O)c1ccc(-c2c[nH]cc2C(c2ccc(Cl)cc2Cl)n2ccnc2)cc1 (stereo not drawn)"
target_or_test_system = "Trypanosoma cruzi"
measured_metric = "pIC50"
assay_value = 7.54

[[record]]
compound = "Cc1ccc(-c2c[nH]cc2C(c2ccc(Cl)cc2Cl)n2ccnc2)cc1 (stereo not drawn)"
target_or_test_system = "Trypanosoma cruzi"
measured_metric = "pIC50"
assay_value = 7.30


Now take the following compound into account.
Lab book: pIC50 of Cn1cc(C(c2ccc(Cl)cc2)n2ccnc2)cc1-c1ccc(Cl)cc1 (stereo not drawn) noted as 8.52

---

test system: Trypanosoma cruzi; assay: Antiprotozoal activity against Trypanosoma cruzi Tulahuen C2C4 amastigotes infected in rat L6 cells after 96 hrs by inverted microscopic analysis; format: functional, organism-based; conditions: Tulahuen C2C4, L6, 96 h
Measured metric: IC50 (µM)
Answers are plain numbers, in µM.

Some solved cases for reference:
[[record]]
compound = "COc1ccc(-c2c[nH]cc2C(c2ccc(Cl)cc2Cl)n2ccnc2)cc1 (stereo not given)"
result_units = "µM"
assay_value = 0.05

[[record]]
compound = "C=CCn1cc(C(c2ccc(Cl)cc2)n2ccnc2)cc1-c1ccc(Cl)cc1 (stereo not given)"
result_units = "µM"
assay_value = 0.002

[[record]]
compound = "N#Cc1ccc(C(c2ccn(-c3ccc(Cl)cc3)c2)n2ccnc2)cc1 (stereo not given)"
result_units = "µM"
assay_value = 3.9

[[record]]
compound = "Clc1ccc(-c2c[nH]cc2[C@H](c2ccc(Cl)cc2Cl)n2ccnc2)cc1"
result_units = "µM"
assay_value = 0.0009

[[record]]
compound = "CSc1ccc(-c2c[nH]cc2C(c2ccc(Cl)cc2Cl)n2ccnc2)cc1 (stereo not given)"
result_units = "µM"
assay_value = 0.043


# batch size: 2; output IC50 per entry
1. O=[N+]([O-])c1ccc(-n2ccc(C(c3ccccc3)n3ccnc3)c2)cc1 (stereo not given)
2. O=[N+]([O-])c1ccc(-n2ccc(C(c3ccc(Cl)cc3)n3ccnc3)c2)cc1 (stereo not given)

10.2
6.18

Source of measurements: ChEMBL document CHEMBL4411312
